targetSystem: human ApoC3 (human)
Sequence (chain, as listed by the source): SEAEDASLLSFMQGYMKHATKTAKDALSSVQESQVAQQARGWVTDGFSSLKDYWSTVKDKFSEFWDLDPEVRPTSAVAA
experimentSummary: SPR pH 7.4
Each entry below carries its recorded Kd.
readoutLabel: Kd (nM)

binder: mAb9 (antibody, V domains shown) VH: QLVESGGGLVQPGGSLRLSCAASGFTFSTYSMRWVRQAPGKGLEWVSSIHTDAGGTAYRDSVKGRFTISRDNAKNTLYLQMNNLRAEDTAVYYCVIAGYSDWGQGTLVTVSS VL: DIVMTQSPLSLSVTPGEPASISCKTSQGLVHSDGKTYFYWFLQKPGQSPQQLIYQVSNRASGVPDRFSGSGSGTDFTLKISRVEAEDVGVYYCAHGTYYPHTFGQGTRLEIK
readoutLabel: Kd
measurementUnits: nM
numericResult: 0.149
//
binder: mAb2 (antibody, V domains shown) VH: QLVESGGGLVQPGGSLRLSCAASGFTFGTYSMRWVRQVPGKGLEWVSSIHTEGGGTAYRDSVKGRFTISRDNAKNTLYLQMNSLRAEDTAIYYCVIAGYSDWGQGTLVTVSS VL: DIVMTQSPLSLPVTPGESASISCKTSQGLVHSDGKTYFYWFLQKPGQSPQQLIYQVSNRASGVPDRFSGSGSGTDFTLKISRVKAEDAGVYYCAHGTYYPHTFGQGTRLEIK
readoutLabel: Kd
measurementUnits: nM
numericResult: 0.0552
//
binder: mAb4 (antibody, V domains shown) VH: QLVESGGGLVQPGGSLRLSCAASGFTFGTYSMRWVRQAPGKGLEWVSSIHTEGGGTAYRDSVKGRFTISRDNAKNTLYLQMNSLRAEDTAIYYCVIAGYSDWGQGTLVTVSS VL: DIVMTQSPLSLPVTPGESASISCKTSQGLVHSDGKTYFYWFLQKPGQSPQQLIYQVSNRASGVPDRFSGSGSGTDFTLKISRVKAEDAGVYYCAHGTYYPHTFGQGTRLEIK
readoutLabel: Kd
measurementUnits: nM
numericResult: 0.00464

The values you see were collected from patent US10538583.
